# System: MS2 coat protein
# Measurement Protocol: apparent KD of MS2 coat protein; designed switch direction (-1 OFF switch, 1 ON switch): -1; higher = weaker reporter binding
# Test Context: Eterna round: R95; input ligand: microRNA oligo, concentration not stated
Each entry gets F if its apparent KD of MS2 coat protein stays under 70 nM, and T if its apparent KD of MS2 coat protein is 70 nM or above.

IN: Form field: apparent KD of MS2 coat protein at least 70 nM? Entry: CCUCAACAGUAGGAUAUCAUCAAACUAUUGUGAUGAGAAGGACUGACAUGAGGAUCACCCAUGUUAACGUGAUG [Exclusion 6 - 6:c] (puzzle: Exclusion 6)
OUT: F

IN: Form field: apparent KD of MS2 coat protein at least 70 nM? Entry: AGAAGACAUGAGGAUCACCCAUGUAAGGAUAUUGGAGGUUAGGGAUGCUGGAGUUGGGCAAGAAGGUACAGGUG [JR_Exclu1_Sub092] (puzzle: Exclusion 1)
OUT: F

IN: Form field: apparent KD of MS2 coat protein at least 70 nM? Entry: GCCUCACAUGAGGAUCACCCAUGUCAGGAUAUCUCGUGCGCAGUAAUUAUCUGGCUAAAGAGAAGGGACAUUAA [Bedile] (puzzle: Exclusion 1)
OUT: F

IN: Form field: apparent KD of MS2 coat protein at least 70 nM? Entry: AAGUACCGUCACGAUAGUGAUGGUACAACAAGCAUGUAAACAUGAGGAUCACCCAUGUCCUCAAAUGCUCGUCUUAU [Sensor 3 - 65] (puzzle: Sensor v3, turn-off variant 2)
OUT: T

The values you see were collected from the supplement of paper PMC9170038.
